Target: EBP-Ig (N-terminal 225 amino acids of the human EPO receptor joined to an Ig heavy chain) (Homo sapiens, UniProt P19235)
Construct: Ig heavy chain (fusion partner); made in house; host or cells: NSO cells (secreted into conditioned media)
Sequence (P19235 25-250 limits assumed): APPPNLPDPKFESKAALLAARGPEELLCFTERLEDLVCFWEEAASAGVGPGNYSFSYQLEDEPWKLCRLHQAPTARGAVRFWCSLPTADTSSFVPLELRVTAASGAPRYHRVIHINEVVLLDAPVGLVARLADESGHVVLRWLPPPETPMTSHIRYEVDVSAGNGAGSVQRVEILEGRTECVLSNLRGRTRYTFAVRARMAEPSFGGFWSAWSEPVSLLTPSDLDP
Assay: Inhibition of [125I]EPO binding to immobilized EBP-Ig (EPO binding protein-Ig), scintillation Flash plate competition assay
Details: read-out: IC50, μM (Inhibition of EPO binding to EBP-Ig); 0.5 nM [125I]EPO; concentration reducing corrected total binding to 50%
For each of the molecules below, state its log10(IC50).
Remember, log10 of IC50, in µM.

Briefly, log10(IC50) measured for O=C(O)CCCC(=O)NCCCCC(C(=O)NCCCOCCOCCOCCCNC(=O)C(CCCCNC(=O)CCCC(=O)O)N(Cc1ccc(OCc2ccccc2)cc1)Cc1ccc(OCc2ccccc2)cc1)N(Cc1ccc(OCc2ccccc2)cc1)Cc1ccc(OCc2ccccc2)cc1 (centres unmarked) [compound 272] : 1.00

Briefly, log10(IC50) measured for O=C(O)CCCC(=O)NCCCCC(C(=O)NCCCOCCCCOCCCNC(=O)C(CCCCNC(=O)CCCC(=O)O)N(Cc1ccc(OCc2ccccc2)cc1)Cc1ccc(OCc2ccccc2)cc1)N(Cc1ccc(OCc2ccccc2)cc1)Cc1ccc(OCc2ccccc2)cc1 (centres unmarked) [compound 266] : 0.60

Briefly, log10(IC50) measured for COC(=O)c1cccc(C=CCNC(Cc2ccc(OC)cc2)C(=O)OC)c1 (centres unmarked) [compound 363] : 2.34

Briefly, log10(IC50) measured for O=C(O)CCC(C(=O)NCCOCCOCCNC(=O)C(CCC(=O)O)N(CC=Cc1ccccc1)CC=Cc1ccccc1)N(CC=Cc1ccccc1)CC=Cc1ccccc1 (centres unmarked) [compound 251] : 1.65

Briefly, log10(IC50) measured for O=C(O)CCC(=O)NCCCCC(C(=O)NCCCOCCCCOCCCNC(=O)C(CCCCNC(=O)CCC(=O)O)N(Cc1ccc(OCc2ccccc2)cc1)Cc1ccc(OCc2ccccc2)cc1)N(Cc1ccc(OCc2ccccc2)cc1)Cc1ccc(OCc2ccccc2)cc1 (centres unmarked) [compound 265] : 0.78

Briefly, log10(IC50) measured for NCCCCC(C(=O)NCc1ccccc1)N(CC=Cc1ccccc1)CC=Cc1ccccc1 (centres unmarked) [compound 235] : 1.70

Briefly, log10(IC50) measured for CC(C)(C)c1ccc(Oc2cccc(/C=C/CN(C/C=C/c3cccc(Oc4ccc(C(C)(C)C)cc4)c3)C(CCC(=O)O)C(=O)O)c2)cc1 (centres unmarked) [compound 104] : 1.48

Briefly, log10(IC50) measured for COc1ccc(CCNC(=O)C(CCCCN)N(CC=Cc2ccccc2)CC=Cc2ccccc2)cc1 (centres unmarked) [compound 211] : 1.81

Briefly, log10(IC50) measured for COc1ccccc1CCNC(=O)C(CCCCN)N(CC=Cc1ccccc1)CC=Cc1ccccc1 (centres unmarked) [compound 224] : 1.70

Briefly, log10(IC50) measured for CC(C)(CC(=O)O)CC(=O)NCCCCC(C(=O)NCCOCCOCCNC(=O)C(CCCCNC(=O)CC(C)(C)CC(=O)O)N(Cc1ccc(OCc2ccccc2)cc1)Cc1ccc(OCc2ccccc2)cc1)N(Cc1ccc(OCc2ccccc2)cc1)Cc1ccc(OCc2ccccc2)cc1 (centres unmarked) [compound 264] : 0.90

Briefly, log10(IC50) measured for O=C(O)CCC(=O)NCCCCC(C(=O)NCCCOCCOCCOCCCNC(=O)C(CCCCNC(=O)CCC(=O)O)N(Cc1ccc(OCc2ccccc2)cc1)Cc1ccc(OCc2ccccc2)cc1)N(Cc1ccc(OCc2ccccc2)cc1)Cc1ccc(OCc2ccccc2)cc1 (centres unmarked) [compound 271] : 0.85
